assayed_system: proteasome chymotrypsin-like activity in living Jurkat cells (Homo sapiens, UniProt P28074)
Construct: endogenous in cells
protocol: Proteasome chymotrypsin-like activity in living Jurkat T cells
cond: 12 h preincubation
measurement_name: pIC50
Kindly note that pIC50 refers to -log10 of the concentration in mol/L and answer with the value alone.

**Q:** Find the recorded pIC50 belonging to O=C(O[C@@H]1Cc2c(O)cc(O)cc2O[C@@H]1c1cc(O)c(O)c(O)c1)c1cc(O)c(O)c(O)c1 [EGCG, (−)-epigallocatechin-3-gallate] and report it.
**A:** 4.74

###

assayed_system: chymotrypsin-like activity of purified 20S proteasome
Sequence (Q9P992 whole entry): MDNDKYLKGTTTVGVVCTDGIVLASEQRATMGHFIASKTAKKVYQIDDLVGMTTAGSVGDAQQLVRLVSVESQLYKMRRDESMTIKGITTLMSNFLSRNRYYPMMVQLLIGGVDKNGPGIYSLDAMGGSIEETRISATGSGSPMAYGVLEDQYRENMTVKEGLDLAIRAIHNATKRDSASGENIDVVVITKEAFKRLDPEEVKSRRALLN
cond: read-out: IC50 towards the chymotrypsin-like activity of purified 20S proteasome
Protocol: FIG. 8. […] A). […] Initially, 0.5 μg of purified 20S proteasome is incubated with 20 μM of a fluorogenic peptide substrate, Suc-Leu-Leu-Val-Tyr-AMC, for 30 min at 37° C. in 100 μl of assay buffer (20 mM Tris-HCl, pH 8.0) with various concentrations of tannic acid. […]
Answer each item with its documented pIC50.
// field semantics: pIC50 = negative decimal log of concentration (mol/L)

**Q:** Which pIC50 reading was recorded for the compound O=C(O)c1cc(O)c(O)c(O)c1 [gallic acid, reference compound] ?
**A:** 2.15

**Q:** What value of pIC50 has been reported for the following compound? Oc1cc(O)c2c(c1)O[C@H](c1cc(O)c(O)c(O)c1)[C@H](O)C2 [EGC, (−)-epigallocatechin]
**A:** 2.92
